From: patent US9492425B2

Test: Aqueous solubility (slurry ca. 24 hours, filtered, HPLC-UV)
Assay type: physicochemical
Settings: aqueous buffer, thermodynamic from solid, Water/slurry pH 7.5, ambient temperature
MEASURED_METRIC: solubility at 24 h (µg/mL)

molecule="O.O.O=c1c(-c2ccc(O)cc2)coc2cc(O)cc(O)c12.[K] [genistein potassium salt dihydrate]" value_reported=69

====

Assay: Aqueous solubility (slurry ca. 24 hours, filtered, HPLC-UV)
Format: physicochemical
Conditions: aqueous buffer, thermodynamic from solid, Water/slurry pH 4.5, ambient temperature
MEASURED_METRIC: solubility at 24 h

molecule="O.O.O=c1c(-c2ccc(O)cc2)coc2cc(O)cc(O)c12.[K] [genistein potassium salt dihydrate]" measured_metric="solubility at 24 h" value_reported="40 µg/mL"

====

Assay: Aqueous solubility (slurry ca. 24 hours, filtered, HPLC-UV)
Format: physicochemical
Conditions: aqueous buffer, thermodynamic from solid, Water/slurry pH 6.7, ambient temperature
MEASURED_METRIC: solubility at 24 h (µg/mL)

compound="O.O.O=c1c(-c2ccc(O)cc2)coc2cc(O)cc(O)c12.[K] [genistein potassium salt dihydrate]" measure_unit=µg/mL value_reported=57
